systemUnderTest: Human CD137 ECD (human)
Sequence (chain, as listed by the source limits assumed): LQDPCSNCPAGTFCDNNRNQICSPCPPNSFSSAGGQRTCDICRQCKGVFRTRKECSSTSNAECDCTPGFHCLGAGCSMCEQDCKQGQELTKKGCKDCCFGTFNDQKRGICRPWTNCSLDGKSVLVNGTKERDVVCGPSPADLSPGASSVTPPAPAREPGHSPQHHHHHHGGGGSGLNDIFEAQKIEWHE
protocolText: Biacore SPR, vs parent H183/L072
measuredProperty: fold change of affinity (fold)
Entry rule: numbers only, all in fold.

Entry H183/L072 VL A25W (antibody, name in Kabat numbering, V domains shown) VH: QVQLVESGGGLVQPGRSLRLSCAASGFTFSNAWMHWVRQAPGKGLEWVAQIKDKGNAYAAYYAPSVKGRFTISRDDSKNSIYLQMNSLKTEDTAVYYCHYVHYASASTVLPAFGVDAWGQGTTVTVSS VL: DIVMTQSPLSLPVTPGEPASISCQWSQELVHMNRNTYLHWYQQKPGQAPRLLIYKVSNRFPGVPDRFSGSGSGTDFTLKISRVEAEDVGVYYCAQGTSVPFTFGQGTKLEIK : reported fold change of affinity = ? 0

Follow-up entry: H183/L072 VL L33S (antibody, name in Kabat numbering, V domains shown) VH: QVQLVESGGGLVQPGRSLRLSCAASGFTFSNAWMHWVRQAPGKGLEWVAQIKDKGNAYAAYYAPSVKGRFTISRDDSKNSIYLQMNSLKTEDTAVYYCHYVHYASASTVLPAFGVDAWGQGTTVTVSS VL: DIVMTQSPLSLPVTPGEPASISCQASQELVHMNRNTYSHWYQQKPGQAPRLLIYKVSNRFPGVPDRFSGSGSGTDFTLKISRVEAEDVGVYYCAQGTSVPFTFGQGTKLEIK 0

Follow-up entry: H183/L072 VL A25E (antibody, name in Kabat numbering, V domains shown) VH: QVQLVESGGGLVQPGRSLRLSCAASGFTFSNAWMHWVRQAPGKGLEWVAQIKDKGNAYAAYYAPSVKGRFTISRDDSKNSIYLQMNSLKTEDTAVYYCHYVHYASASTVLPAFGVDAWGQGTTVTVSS VL: DIVMTQSPLSLPVTPGEPASISCQESQELVHMNRNTYLHWYQQKPGQAPRLLIYKVSNRFPGVPDRFSGSGSGTDFTLKISRVEAEDVGVYYCAQGTSVPFTFGQGTKLEIK 0
